molecular target: Peroxisome proliferator-activated receptor gamma/Nuclear receptor coactivator 1 (Homo sapiens, UniProt P37231); assay type: functional;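 note: agonist potency as compounds enhance coactivator SRC-1 recruitment to PPARgamma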
Calls of active or inactive are those of the source.
Answer each item with its documented EC50.

Batch lookup, EC50 per entry.
1. Cn1c(SCC(=O)Nc2cccc(Br)c2)nnc1-c1cc2ccccc2o1
2. Cn1cccc1-c1nc2cc(NC(=O)c3ccccc3)ccc2[nH]1
3. CCc1nc2ccc(C(=O)Nc3nnc(C)s3)cc2nc1CC

result:
1: 13.3 µM (not active); 2: > 79.4 µM (not active); 3: > 79.4 µM (not active)

Batch lookup, EC50 per entry.
1. Cc1ccc(CSc2nc3c(cc2C#N)CCC3)cc1
2. c1cncc(CNC2CCCC2)c1

result:
1: 42.7 µM (not active); 2: > 79.4 µM (not active)

Batch lookup, EC50 per entry.
1. CC(C)C(=O)N1C2CCC1CC(O)(c1ccc(F)cc1)C2 (stereo not drawn)
2. Cn1c(=O)c2c(ncn2CCNC2=NCCCCC2)n(C)c1=O
3. O=C(COc1ccc2ccccc2c1)NNC(=O)Cc1ccccc1

result:
> 79.4 µM (not active)
> 79.4 µM (not active)
6.07 µM (active)

###

biological target: Alkaline phosphatase, tissue-nonspecific isozyme (Homo sapiens, UniProt P05186); test: human TNAP enzyme inhibitors, SAR follow-up, biochemical, luminescent, dose response (AID 1056)
Active and inactive are the calls of the source.
Parameter measured: IC50

Record excerpt, results attached:
query: IC50 for O=C(Cn1cnnc1)c1ccc(O)c(O)c1 ?
result: > 100 µM (inactive)

query: IC50 for NC(=O)c1cn(S(=O)(=O)c2ccc3ccccc3c2)c2ccccc12 ?
result: > 100 µM (inactive)

query: IC50 for COc1ccccc1Cc1nc(N)nn1-c1ccccc1 ?
result: > 100 µM (inactive)

query: IC50 for O=C(O)c1cc(-c2ccc(Cl)cc2Cl)[nH]n1 ?
result: 0.392 µM (active)

Next up:
query: IC50 for COc1cccc(-c2cc(C(=O)O)[nH]n2)c1 ?
result: > 100 µM (inactive)

###

target: fMet-Leu-Phe receptor (Homo sapiens, UniProt P21462); assay: FPR ligands, dose response (AID 519); assay type: functional
The source made the active and inactive calls.
Parameter measured: Ki

Record excerpt, results attached:
query: Ki for CCOc1cccc(C(=O)C2=C(O)C(=O)N(CCOC)C2c2ccc(C)o2)c1 (centres undefined) ?
result: 13.5 µM (active)

query: Ki for CCN1C(=O)/C(=C2\SC(=S)N(CCCOC)C2=O)c2ccccc21 ?
result: > 66.7 µM (inactive)

query: Ki for C=CCOc1ccc(C2C(C(=O)c3cccs3)=C(O)C(=O)N2c2nnc(C)s2)cc1 (centres undefined) ?
result: 40.5 µM (inactive)

***
query: Ki for COC(=O)COc1ccc2c(=O)c(Oc3ccccc3)c(C)oc2c1 ?
result: > 66.7 µM (inactive)

###

target: Peroxisome proliferator-activated receptor gamma/Nuclear receptor coactivator 3 (Homo sapiens); test: TR-FRET dose response biochemical High Throughput Screening assay for agonists of the steroid receptor coactivator 3 (SRC-3) recruitment by the peroxisome proliferator-activated receptor gamma (PPAR gamma): non-selective agonists. [Related pubchem assays: 1301 (Confirmation screen.), 1048 (Primary screen.)]; type: functional
Parameter measured: EC50

Record excerpt, results attached:
query: EC50 for COC(=O)c1c(C)[nH]c(C(=O)C(C)Sc2nnc(-c3cc(OC)c(OC)c(OC)c3)o2)c1C (stereo not given) ?
result: > 79.4 µM (not active)

query: EC50 for CCn1c(=O)cc(SCC(=O)N2CCN(C3CCCCC3)CC2)c2ccccc21 ?
result: > 79.4 µM (not active)

query: EC50 for S=c1[nH]nc(-c2ccccc2)o1 ?
result: > 79.4 µM (not active)

query: EC50 for CC(=O)c1sc(NC(=O)C(C)C)nc1C ?
result: > 79.4 µM (not active)

***
query: EC50 for COc1ccc(NC(=O)CSc2c3c(nc4ccccc24)CCCC3)c(OC)c1 ?
result: > 79.4 µM (not active)

###

These molecules were tested on Cytochrome P450 3A4 (Homo sapiens); AC50 is the recorded read-out.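 Note: CYP3A4 tested as one member of a cytochrome P450 panel screen.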

Record excerpt, results attached:
query: AC50 for CO[C@@H]1COC(=O)[C@@H](CCSC)NC(=O)C/C=C\[C@@H](C)COC(=O)CCC[C@H]1C ?
result: 3.98 µM (inconclusive)

query: AC50 for CCOC(=O)CC1C(=O)NCCN1S(=O)(=O)c1ccccc1Cl (stereo unspecified) ?
result: 14.1 µM (inconclusive)

query: AC50 for N[C@H](Cc1ccc2oc3cc(=O)c4ccccc4c-3nc2c1)C(=O)O ?
result: 3.98 µM (inconclusive)

query: AC50 for Nc1nc(N)c(-c2cccc(C(F)(F)F)c2)c(Cc2cccc(C(F)(F)F)c2)n1 ?
result: 3.16 µM (inconclusive)

query: AC50 for CCNc1ncc2nc(-c3cccs3)c(=O)n(Cc3cccc(OC)c3)c2n1 ?
result: 12.6 µM (inconclusive)

query: AC50 for CCS(=O)(=O)N(C)[C@@H]1c2cc(C#N)ccc2OC(C)(C)[C@H]1O ?
result: 15.8 µM (inconclusive)

Batch lookup, AC50 per entry.
1. CCCCC/N=c1\ccn(Cc2ccccc2)c2ccccc12
2. O=C(C[C@H](c1ccccc1)c1c(O)c2ccccc2oc1=O)c1ccccc1
3. Cc1ccc(C(=O)NC(=S)Nc2cc(-c3nc4ccccc4s3)ccc2C)cc1

result:
15.8 µM (inconclusive)
3.16 µM (inconclusive)
10 µM (inconclusive)

Batch lookup, AC50 per entry.
1. O=[N+]([O-])c1cc(F)c(N2CCOCC2)cc1N1CCCCC1
2. CCOC(=O)n1c(=O)n(Cc2ccccc2Cl)c2ccccc21
3. Cc1c(NC(=O)/C=C/c2cn(-c3ccccc3)nc2-c2ccc(F)cc2)c(=O)n(-c2ccccc2)n1C
4. O=C(Nc1cccc([N+](=O)[O-])c1)c1ccc(CSc2ccccc2)cc1
5. COCC(=O)N1CCC2(CCCN(c3ccncc3)C2)CC1
6. O=c1cc(N2CCN(c3ccccc3)CC2)[nH]c(=O)n1C1CCCCC1
7. O=C(CCCC1=NS(=O)(=O)c2ccccc2N1)N1CCC2(CC1)OCCO2

result:
1: 17.8 µM (inconclusive); 2: 15.8 µM (inconclusive); 3: 25.1 µM (inconclusive); 4: 20 µM (inconclusive); 5: 25.1 µM (inconclusive); 6: 6.31 µM (inconclusive); 7: 35.5 µM (inconclusive)

###

molecular target: DNA dC->dU-editing enzyme APOBEC-3A (Homo sapiens); experiment: Dose Response confirmation of small molecule APOBEC3A DNA Deaminase Inhibitors via a fluorescence-based single-stranded DNA deaminase assay. [Related pubchem assays (depositor defined):AID493011, AID493024]; type: functional
Calls of active or inactive are those of the source.
Parameter measured: IC50

query: Form field - read-out: IC50; system: DNA dC->dU-editing enzyme APOBEC-3A (Homo sapiens); submitted item: O=C(NCCc1ccccc1)c1cc2ncc(Br)cn2n1
result: 12.8 µM (active)

Batch lookup, IC50 per entry.
1. CCSCc1nnc(SCC(=O)Nc2ccc(OC)cc2)n1C
2. C[n+]1ccc(-c2ccncc2)cc1
3. CC(=O)OC1C2CCC1C([N+]1(C)CCCCC1)CC2 (configuration not stated)
4. O=[N+]([O-])c1ccccc1/C=C/C=N/Nc1nc(N2CCCCC2)nc(N2CCCCC2)n1
5. CCc1noc(C)c1C(=O)NNC(=O)c1cc(OC)c(OC)c(OC)c1

result:
3.08 µM (active)
2.02 µM (active)
2.69 µM (active)
1.14 µM (active)
21.3 µM (active)

query: Form field - read-out: IC50; system: DNA dC->dU-editing enzyme APOBEC-3A (Homo sapiens); submitted item: CCN1CCN(c2ccc(S(=O)(=O)N3CCCCC3)cc2NC(=O)/C=C/c2ccc(F)cc2)CC1
result: 4.6 µM (active)

###

target: Heat shock protein HSP 90-alpha (Homo sapiens, UniProt P07900); type: functional, organism-based
Calls of active or inactive are those of the source.
Answer each item with its documented AC50.

Record excerpt, results attached:
query: AC50 for COC(=O)c1ccc(NC(=O)c2cn(-c3ccccc3)nc2-c2ccncc2)cc1 ?
result: 4.18 µM (active)

query: AC50 for Cc1ccc(/C=[N+](\[O-])c2ccc(N(C)C)cc2)c2nsnc12 ?
result: 7.84 µM (active)

query: AC50 for Oc1ccccc1N=Nc1nc(-c2ccccc2)c(-c2ccccc2)[nH]1 ?
result: 2.29 µM (active)

Batch lookup, AC50 per entry.
1. Cc1nn(-c2ccc([N+](=O)[O-])cc2)c(O)c1/C=N/CCN1CCN(C(=O)c2ccccc2F)CC1
2. N#CSCC(=O)c1cccc2ccccc12
3. Oc1c(Br)cc(Br)c2cccnc12 [BROXYQUINOLINE]

result:
5.72 µM (active)
1.61 µM (active)
0.7 µM (active)

###

molecular target: Large T antigen (Simian virus 40, UniProt P03070); format: functional, Betapolyomavirus macacae
Active and inactive are the calls of the source.
Parameter measured: IC50

query: Form field - read-out: IC50; system: Large T antigen (Simian virus 40, UniProt P03070); submitted item: CC[C@H](C)/C=C(C)/C=C/C1=CC2=C(Cl)C(=O)[C@@](C)(OC(C)=O)C(=O)C2=CO1
result: 30.4 µM (active)

query: Form field - read-out: IC50; system: Large T antigen (Simian virus 40, UniProt P03070); submitted item: O=c1c(-c2ccc([N+](=O)[O-])cc2)coc2c(O)c(O)ccc12
result: 13.8 µM (active)

query: Form field - read-out: IC50; system: Large T antigen (Simian virus 40, UniProt P03070); submitted item: Oc1ccc(Nc2nc(NCC3CCCO3)c3ccccc3n2)cc1 (stereo not given);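 note: Confirmatory-stage PubChem screen for compounds that inhibit SV40 T antigen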
result: 9.48 µM (active)

Batch lookup, IC50 per entry.
1. N=C1/C(=C\c2ccc(SCc3ccco3)o2)C(=O)N=C2SC=NN12
2. N#C/C(=C\c1ccc(N2CCOCC2)o1)C(=O)Nc1ccc(O)cc1

result:
1: 59.6 µM (active); 2: 15.2 µM (active)

Batch lookup, IC50 per entry.
1. O=C1NC(=S)N(c2ccc(F)cc2)C(=O)/C1=C\c1ccoc1
2. CCOc1cc(/C=N/Nc2nc(C)cc(O)n2)ccc1O
3. O=C(C1CC1)N1CCN(c2ccc(O)cc2)CC1
4. CCc1cc(C(=O)N/N=C/c2ccc(O)cc2)c2ccccc2n1
5. N#CSCC(=O)c1cccc2ccccc12

result:
1. 12.8 µM (active)
2. 24.9 µM (active)
3. 11.5 µM (active)
4. > 100 µM (active)
5. 20.6 µM (active)
